Quick record: pIC50, Acetylcholinesterase (Homo sapiens, UniProt P22303).
pIC50 is defined as minus the log10 of a concentration measured in mol/L.

Problem: Identify measured pIC50 corresponding to CC(C)(C)c1cc(/C=C/C(=O)NCCC2CCN(Cc3ccc(F)c(F)c3)CC2)cc(C(C)(C)C)c1O
Solution: 5.79

Problem: Identify measured pIC50 corresponding to CC(C)(C)c1cc(/C=C/C(=O)NCCC2CCN(Cc3ccccc3F)CC2)cc(C(C)(C)C)c1O
Solution: 6.12

Problem: Identify measured pIC50 corresponding to CC(C)(C)c1cc(/C=C/C(=O)NCCC2CCN(Cc3cccc(Cl)c3)CC2)cc(C(C)(C)C)c1O
Solution: 5.60

Problem: Identify measured pIC50 corresponding to O=C(/C=C/c1ccc(O)cc1)NCCC1CCN(Cc2ccccc2)CC1
Solution: 5.60

Problem: Identify measured pIC50 corresponding to COc1ccc(CN2CCC(CCNC(=O)/C=C/c3cc(C(C)(C)C)c(O)c(C(C)(C)C)c3)CC2)cc1
Solution: 5.67

Problem: Identify measured pIC50 corresponding to O=C(/C=C/c1ccccc1)NCCC1CCN(Cc2ccccc2)CC1
Solution: 6.35

Problem: Identify measured pIC50 corresponding to Cc1ccc(CN2CCC(CCNC(=O)/C=C/c3cc(C(C)(C)C)c(O)c(C(C)(C)C)c3)CC2)cc1
Solution: 5.70

Problem: Identify measured pIC50 corresponding to CC(C)(C)c1cc(C(=O)CNCCC2CCN(Cc3ccccc3)CC2)cc(C(C)(C)C)c1O
Solution: 5.86

Problem: Identify measured pIC50 corresponding to CC(C)(C)c1cc(/C=C/C(=O)NCCC2CCN(Cc3ccc(C#N)cc3)CC2)cc(C(C)(C)C)c1O
Solution: 5.56

Problem: Identify measured pIC50 corresponding to CC(C)(C)c1cc(CCC(=O)NCCC2CCN(Cc3ccccc3)CC2)cc(C(C)(C)C)c1O
Solution: 5.47

* * *

Molecular target: Acetylcholinesterase (Homo sapiens)
Sequence (P22303 whole entry): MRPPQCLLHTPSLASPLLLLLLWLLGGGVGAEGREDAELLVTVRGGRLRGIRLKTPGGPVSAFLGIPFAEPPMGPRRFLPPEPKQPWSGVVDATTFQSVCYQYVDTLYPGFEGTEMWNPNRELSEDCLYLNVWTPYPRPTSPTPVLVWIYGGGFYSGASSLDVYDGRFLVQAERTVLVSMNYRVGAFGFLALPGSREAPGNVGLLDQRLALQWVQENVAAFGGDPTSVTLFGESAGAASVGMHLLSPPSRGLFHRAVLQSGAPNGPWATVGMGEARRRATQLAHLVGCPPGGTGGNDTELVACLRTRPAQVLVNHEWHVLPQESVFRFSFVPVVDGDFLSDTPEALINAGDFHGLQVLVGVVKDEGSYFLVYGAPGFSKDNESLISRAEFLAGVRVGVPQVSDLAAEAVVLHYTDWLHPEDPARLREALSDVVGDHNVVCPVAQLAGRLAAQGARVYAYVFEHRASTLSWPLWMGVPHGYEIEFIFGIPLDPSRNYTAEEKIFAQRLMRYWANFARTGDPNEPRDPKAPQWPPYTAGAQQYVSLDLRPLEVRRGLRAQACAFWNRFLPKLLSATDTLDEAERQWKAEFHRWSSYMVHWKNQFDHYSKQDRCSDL
Experiment: Inhibition of human erythrocyte AChE at 100 uM using acetylthiocholine chloride as substrate incubated for 5 mins followed by substrate addition measured after 180 secs by Ellman's method relative to control
Listed next: entries and their corresponding inhibition.
Report as a plain number; the unit % is understood.

CC(C)(C)c1cc(C(=O)CNC2CCN(Cc3ccccc3)CC2)cc(C(C)(C)C)c1O; 43.4
CC(C)(C)c1cc(C(=O)NCCC2CCN(Cc3ccccc3)CC2)cc(C(C)(C)C)c1O; 34.1
CC(C)(C)c1cc(/C=C/C(=O)NCC2CCN(Cc3ccccc3)CC2)cc(C(C)(C)C)c1O; 28.1

Kindly consider the entry below.
Problem: Under Acetylcholinesterase (Homo sapiens), report inhibition for CC(C)(C)c1cc(C(=O)NCC2CCN(Cc3ccccc3)CC2)cc(C(C)(C)C)c1O
Solution: 15.7

* * *

Protein target, amino acids: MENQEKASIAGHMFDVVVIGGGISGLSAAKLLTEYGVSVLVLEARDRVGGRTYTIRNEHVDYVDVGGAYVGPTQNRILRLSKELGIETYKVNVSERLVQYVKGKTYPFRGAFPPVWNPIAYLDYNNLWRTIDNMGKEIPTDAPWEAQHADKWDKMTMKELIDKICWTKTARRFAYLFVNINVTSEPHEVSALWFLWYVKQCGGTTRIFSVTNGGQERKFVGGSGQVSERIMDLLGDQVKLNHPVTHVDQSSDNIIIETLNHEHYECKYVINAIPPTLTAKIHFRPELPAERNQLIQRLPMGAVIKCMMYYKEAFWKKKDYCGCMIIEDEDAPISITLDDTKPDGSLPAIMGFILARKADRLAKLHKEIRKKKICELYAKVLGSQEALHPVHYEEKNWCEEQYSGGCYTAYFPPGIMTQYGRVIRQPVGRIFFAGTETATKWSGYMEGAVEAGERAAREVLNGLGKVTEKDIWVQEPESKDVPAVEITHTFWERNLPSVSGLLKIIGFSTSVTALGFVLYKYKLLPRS
property: pIC50
pIC50 is defined as minus the log10 of a concentration measured in mol/L.

Below, 2 compounds whose answers are already recorded.
Cc1ccc(CN2CCC(CCNC(=O)/C=C/c3cc(C(C)(C)C)c(O)c(C(C)(C)C)c3)CC2)cc1; 4.15
CC(C)(C)c1cc(/C=C/C(=O)NCCC2CCN(Cc3cccc([N+](=O)[O-])c3)CC2)cc(C(C)(C)C)c1O; 4.15

Problem: Identify measured pIC50 corresponding to CC(C)(C)c1cc(/C=C/C(=O)NCCC2CCN(Cc3ccc(F)cc3F)CC2)cc(C(C)(C)C)c1O
Solution: 4.15

// provenance: ChEMBL document CHEMBL4270597
